// data source = the Deep4Chem optical property database

Assay: solvent given as SMILES
Settings: in OCC(O)CO
We begin with a simple list: items and their reported emission maximum.
The answer is to be given in nm; state only the numeric part.

Sample records with emission maximum:
compound: C[n+]1ccc(/C=C/c2ccc(N(c3ccccc3)c3ccc(/C=C/c4cc[n+](C)cn4)cc3)cc2)nc1
measValue: 685
--
compound: CN(C)c1c2ccccc2cc2ccccc12
measValue: 393
--
compound: CN(C)c1ccc(/C=C/C=C/c2nc3ccccc3o2)cc1
measValue: 566
--
compound: CN(C)c1ccc(/C=C/c2nc3ccccc3s2)cc1
measValue: 530

Let us examine a further case.
### Prompt Let me know recorded emission maximum for CCN(CC)c1ccc2c(C(F)(F)F)cc(=O)oc2c1 , thanks.
### Response 524

----------
We begin with a simple list: items and their reported emission maximum.
Experiment: solvent given as SMILES
Settings: in ClC(Cl)Cl

compound: c1cc2ccc3ccc(-c4ccc(-c5nnc(-c6ccc(-c7nnc(-c8ccc(-c9ccc%10ccc%11cccc%12ccc9c%10c%11%12)s8)o7)cc6)o5)s4)c4ccc(c1)c2c34
emission maximum: 373 nm

### Prompt Let me know recorded emission maximum for CC[n+]1c(C=C2C(=O)C(C=C3N(C)c4ccc(Cl)cc4C3(C)C)=C2[O-])[se]c2ccccc21 , thanks.
### Response 677 nm

### Prompt Let me know recorded emission maximum for c1ccc(-n2c(-c3ccc(-c4ccc5c(c4)C4(c6ccccc6-5)c5ccccc5-c5ccc(-c6ccc(-c7nc8ccccc8n7-c7ccccc7)cc6)c6cccc4c56)cc3)nc3ccccc32)cc1 (stereo not drawn) , thanks.
### Response 440 nm

### Prompt Let me know recorded emission maximum for O=C(O)c1ccccc1Nc1ccccc1 , thanks.
### Response 450 nm

### Prompt Let me know recorded emission maximum for Cc1cc(O)c(C(C)C)cc1/N=C/c1ccc(O)cc1 , thanks.
### Response 401 nm

### Prompt Let me know recorded emission maximum for c1ccc2c3c(ccc2c1)C1(c2cc(-c4ccc5ccc6cccc7ccc4c5c67)ccc2-c2ccc(-c4ccc5ccc6cccc7ccc4c5c67)cc21)c1ccc2ccccc2c1O3 , thanks.
### Response 422 nm

### Prompt Let me know recorded emission maximum for COc1ccc(C2=C3C(C)=CC(C)=[N+]3[B-](F)(F)n3c(/C=C/c4ccc(N(C)C)cc4)cc(C)c32)cc1 , thanks.
### Response 656 nm

### Prompt Let me know recorded emission maximum for c1ccc(-c2ncc3ccccn23)cc1 , thanks.
### Response 461 nm

----------
Assay: solvent given as SMILES
Details: in O=P(c1ccccc1)(c1ccccc1)c1ccccc1Oc1ccccc1P(=O)(c1ccccc1)c1ccccc1
testReadout: emission maximum (nm)
The answer is to be given in nm; state only the numeric part.

Sample records with emission maximum:
molecule: CC(C)(C)c1ccc2c(c1)c1cc(C(C)(C)C)ccc1n2-c1cccc(-c2nc(-c3cccc(-n4c5ccc(C(C)(C)C)cc5c5cc(C(C)(C)C)ccc54)c3)nc(-c3cccc(P(=O)(c4ccccc4)c4ccccc4)c3)n2)c1
measValue: 484
//
molecule: N#Cc1cc(C#N)c(-n2c3ccccc3c3c(-c4cccc5c4c4ccccc4n5-c4cc(-n5c6ccccc6c6ccccc65)c(C#N)cc4C#N)cccc32)cc1-n1c2ccccc2c2ccccc21
measValue: 444
//
molecule: c1ccc(-c2cc(-c3ccc(N4c5ccccc5C(c5ccccc5)(c5ccccc5)c5ccccc54)cn3)nc(-c3ccccc3)n2)cc1
measValue: 486
//
molecule: CC1(C)c2ccccc2N(c2ccc3c(c2)Oc2ccccc2P3(=O)c2ccccc2)c2ccccc21 (stereo not given)
measValue: 434

Let us examine a further case.
### Prompt Let me know recorded emission maximum for O=S1(=O)c2ccccc2-c2cc(-n3c4ccccc4c4cc(-c5ccc6c(c5)c5ccccc5n6-c5ccccc5)ccc43)ccc21 , thanks.
### Response 462.73

----------
Experiment: solvent given as SMILES
Conditions: in CN(C)C=O
Classification field: label 1 = emission maximum at or over 500 nm; label 0 = emission maximum under 500 nm.

### Prompt Dear colleague, could you confirm whether c1ccc(-c2nn(-c3ccccc3)c3nc4ccc(N(c5ccccc5)c5cccc6ccccc56)cc4cc23)cc1 has emission maximum at or above 500 nm?
### Response label 1

### Prompt Dear colleague, could you confirm whether NS(=O)(=O)c1ccc(N2N=C(c3ccc(O)cc3)CC2c2ccc(F)cc2)cc1 (centres undefined) has emission maximum at or above 500 nm?
### Response label 0

### Prompt Dear colleague, could you confirm whether CCn1c2ccccc2c2cc(-c3cc(-c4ccc5c(c4)c4ccccc4n5CC)ncn3)ccc21 has emission maximum at or above 500 nm?
### Response label 0

### Prompt Dear colleague, could you confirm whether O=S(=O)([O-])c1ccc(O)c2ccccc12 has emission maximum at or above 500 nm?
### Response label 0

### Prompt Dear colleague, could you confirm whether COc1ccc(C2=C3C(C)=CC(C)=[N+]3[B-](F)(F)n3c(/C=C/c4ccc(N(C)C)cc4)cc(C)c32)cc1 has emission maximum at or above 500 nm?
### Response label 1

----------
Test: solvent given as SMILES
Conditions: in C1COCCO1
testReadout: emission maximum (nm)
The answer is to be given in nm; state only the numeric part.

molecule: COC(=O)c1c2ccccc2nc2ccccc12
measValue: 420

### Prompt Let me know recorded emission maximum for CN(CC(O)c1cccc(O)c1)c1ccc([N+](=O)[O-])c(C2CC(c3cccc4ccccc34)=NN2c2ccccc2)c1 (stereo unspecified) , thanks.
### Response 454

### Prompt Let me know recorded emission maximum for c1ccc(-c2ccc(-c3cc(-c4ccc(-c5ccccc5)cc4)cc(-c4ccc(-c5ccccc5)cc4)c3)cc2)cc1 , thanks.
### Response 364

### Prompt Let me know recorded emission maximum for COC(=O)c1ccc(/C=C2\C=C(c3ccc(OC)c(OC)c3)OC2=O)cc1 , thanks.
### Response 522

### Prompt Let me know recorded emission maximum for Nc1ccc2c(c1)Cc1ccccc1-2 , thanks.
### Response 363

### Prompt Let me know recorded emission maximum for NS(=O)(=O)c1ccc(N2N=C(c3ccc(O)cc3)CC2c2ccc(F)cc2)cc1 (stereo unspecified) , thanks.
### Response 417

----------
Assay: solvent given as SMILES
Settings: in ClCCl
We begin with a simple list: items and their reported emission maximum.
The answer is to be given in nm; state only the numeric part.

Sample records with emission maximum:
compound: C=CCOc1nnc(OCCC(F)(F)C(F)(F)C(F)(F)C(F)(F)C(F)(F)C(F)(F)F)nn1
units: nm
emission maximum: 573
//
compound: CC(C)(C)c1ccc2c(c1)c1cc(C(C)(C)C)ccc1n2-c1ccc(C#Cc2ccc(C=C(C#N)C#N)cc2)cc1
units: nm
emission maximum: 534

### Prompt Let me know recorded emission maximum for COc1ccc(N(c2ccc(OC)cc2)c2cc(N(c3ccc(OC)cc3)c3ccc(OC)cc3)c3ccc4cc(C(C)(C)C)cc5ccc2c3c54)cc1 , thanks.
### Response 525

### Prompt Let me know recorded emission maximum for COc1cccc(OC)c1-c1c2ccc(=[N+]3CCN(C(=O)OC(C)(C)C)CC3)cc-2oc2cc(N3CCN(C(=O)OC(C)(C)C)CC3)ccc12 , thanks.
### Response 580

### Prompt Let me know recorded emission maximum for Nc1ccc(C#Cc2ccc3ccc4ccc(C#Cc5ccc(N)cc5)c5ccc2c3c45)cc1 , thanks.
### Response 492

### Prompt Let me know recorded emission maximum for CCCCCCOc1cc(N(CC)CC)ccc1/C=C/C(=C(C#N)C#N)c1ccc2c(c1)c1ccccc1n2CC , thanks.
### Response 583

### Prompt Let me know recorded emission maximum for CCCCCc1c(C(=O)c2ccc3c4c(cccc24)-c2cccc4c2C3CC=C4)c2ccc3cccc4c5cccc6ccc1c(c65)c2c34 (stereo not drawn) , thanks.
### Response 525

### Prompt Let me know recorded emission maximum for Cc1csc2[n+]1[B-](F)(F)OC(c1ccc(N(C)C)cc1)=N2 , thanks.
### Response 453

----------
We begin with a simple list: items and their reported emission maximum.
Assay: solvent given as SMILES
Conditions: in CC1CCCCC1
The answer is to be given in nm; state only the numeric part.

### Prompt Let me know recorded emission maximum for CN(C)c1ccc(C2=Cc3c4ccccc4c4ccccc4[n+]3[B-](F)(F)O2)cc1 , thanks.
### Response 485

### Prompt Let me know recorded emission maximum for COc1ccc(C2=C3C(C)=CC(C)=[N+]3[B-](F)(F)n3c(/C=C/c4ccc(N(C)C)cc4)cc(C)c32)cc1 , thanks.
### Response 612

### Prompt Let me know recorded emission maximum for C(=C\c1ccnc2ccccc12)/c1c2ccccc2cc2ccccc12 , thanks.
### Response 498

### Prompt Let me know recorded emission maximum for C(=C\c1c2ccccc2cc2ccccc12)/c1ccccc1 , thanks.
### Response 468

### Prompt Let me know recorded emission maximum for CN(C)c1ccc(C2=Cc3ccc4ccccc4[n+]3[B-](F)(F)O2)cc1 , thanks.
### Response 478
